# ASSAY_TARGET: human FAAH (Fatty Acid Amide Hydrolase) (Homo sapiens, UniProt O00519)
# Construct: The full length FAAH was subcloned into the mammalian expression vector, pcDEF.neo
# Sequence (O00519 whole entry): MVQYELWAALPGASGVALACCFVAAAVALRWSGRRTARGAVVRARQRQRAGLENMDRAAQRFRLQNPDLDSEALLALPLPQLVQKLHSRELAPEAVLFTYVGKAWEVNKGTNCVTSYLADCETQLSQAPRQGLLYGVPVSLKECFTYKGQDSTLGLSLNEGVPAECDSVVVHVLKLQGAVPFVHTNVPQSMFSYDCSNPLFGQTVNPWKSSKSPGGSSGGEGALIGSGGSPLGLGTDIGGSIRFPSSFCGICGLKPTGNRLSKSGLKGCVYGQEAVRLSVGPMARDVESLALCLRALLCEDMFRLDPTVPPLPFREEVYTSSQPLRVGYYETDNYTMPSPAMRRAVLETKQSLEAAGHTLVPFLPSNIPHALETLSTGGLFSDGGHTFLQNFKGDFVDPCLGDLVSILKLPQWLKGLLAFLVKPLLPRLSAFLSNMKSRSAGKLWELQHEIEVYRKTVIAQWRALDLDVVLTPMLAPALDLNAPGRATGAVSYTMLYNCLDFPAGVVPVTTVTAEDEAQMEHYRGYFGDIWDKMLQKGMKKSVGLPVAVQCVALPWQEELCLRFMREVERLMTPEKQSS
# METHOD: FAAH enzyme assay on lysate of CHO cells expressing human FAAH
# Type: biochemical
ENDPOINT_LABEL: IC50 (nM)
All answers are understood in nM, so give the number only.

Solved cases below.
• CC(C)(O)c1cc(-c2nc(-c3ccc(F)cc3)oc2Sc2ccc(Cl)cn2)on1 = 44
• COC(=O)c1cnc(-c2nc(-c3ccc(F)cc3)oc2Sc2ccc(Cl)cn2)nc1 = 11

Q: I have this compound here, CC(C)(O)c1ccc(-c2nc(-c3ccc(OC(F)(F)F)cc3)oc2Sc2ccc(Cl)cn2)cn1 , and I need its recorded IC50.
A: 15

Q: Sample CC(C)(O)c1ccc(-c2nc(-c3ccc(F)cc3)oc2Sc2ccc(Cl)cc2)nc1 — what was its IC50?
A: 17
